target: HLA-B*35:01; assay: IEDB peptide-MHC binding, purified MHC/direct/fluorescence; filed as Kd, often an IC50 or EC50 that approximates it; bounds were set here for any values at or beyond the usual limits of such assays; settings: source organism: Vibrio cholerae
MEASUREMENT_TYPE: Kd (nM)
Express it in nM; write the number only.

KEDPGDHIF; 224

Problem: Entry `IPISGRITA` : reported Kd = ?
Solution: 17.2

---

Quick list: Kd per entry.
target: HLA-B*57:01; assay: IEDB peptide-MHC binding, purified MHC/competitive/fluorescence; filed as Kd, often an IC50 or EC50 that approximates it; bounds were set here for any values at or beyond the usual limits of such assays; conditions: source organism: Giardia lamblia ATCC 50803

NAMGADYYA; ≥ 20 µM

Next sequence, please.
Problem: Which Kd reading was recorded for the sequence `TEDDWITYI` ?
Solution: ≥ 20 µM

---

target: HLA-A*31:01; assay: IEDB peptide-MHC binding, purified MHC/direct/fluorescence; filed as Kd, often an IC50 or EC50 that approximates it; bounds were set here for any values at or beyond the usual limits of such assays; conditions: source organism: Vibrio vulnificus
MEASUREMENT_TYPE: Kd (nM)
Give the value in nM but do not write nM after it.

Problem: If you can, please state the reported Kd value of `KVMALPIPH` .
Solution: 136

---

molecular target: HLA-A*02:11; test: IEDB peptide-MHC binding, purified MHC/competitive/fluorescence; filed as Kd, often an IC50 or EC50 that approximates it; bounds were set here for any values at or beyond the usual limits of such assays; conditions: source organism: Vibrio parahaemolyticus K5030
MEASUREMENT_TYPE: pKd
Convention used: pKd is expressed as -log10 of the molar concentration.

Problem: For the sequence `AGGWVLWKV` , what pKd is on record?
Solution: 8.82

---

molecular target: HLA-B*44:02; experiment: IEDB peptide-MHC binding, purified MHC/competitive/radioactivity; filed as Kd, often an IC50 or EC50 that approximates it; bounds were set here for any values at or beyond the usual limits of such assays; details: source organism: Mammarenavirus juninense
Recorded pKd values for a group of sequences are listed next.
To interpret pKd, take it as minus log10 of a concentration measured in moles per litre.

HESFDLAGLF; 6.76

Alright, here's another sequence for you.
Problem: Please give the measured pKd for this sequence: `HDWHLDPPF`
Solution: 4.73

---

molecular target: HLA-A*26:01; experiment: IEDB peptide-MHC binding, purified MHC/direct/fluorescence; filed as Kd, often an IC50 or EC50 that approximates it; bounds were set here for any values at or beyond the usual limits of such assays; details: source organism: Bacillus cereus 03BB108
MEASUREMENT_TYPE: Kd

Problem: I am curious: what Kd value has been reported for `SQMPPQKIM` ?
Solution: ≥ 20 µM

---

biological target: HLA-A*03:01; experiment: IEDB peptide-MHC binding, purified MHC/direct/fluorescence; filed as Kd, often an IC50 or EC50 that approximates it; bounds were set here for any values at or beyond the usual limits of such assays; conditions: source organism: Brucella suis 1330
pKd: −log10 of the molar value.
MEASUREMENT_TYPE: pKd

Problem: Reported pKd for `MRIGSMATL` : what is it?
Solution: ≤ 4.70

---

biological target: HLA-A*02:50; experiment: IEDB peptide-MHC binding, purified MHC/competitive/fluorescence; filed as Kd, often an IC50 or EC50 that approximates it; bounds were set here for any values at or beyond the usual limits of such assays; details: source organism: Coxiella burnetii Dugway 5J108-111
pKd: −log10 of the molar value.
MEASUREMENT_TYPE: pKd

Problem: # lookup: pKd of `YQLGDYFFV`
Solution: ≥ 10.00
